Assembled from different publications: IC50 for Tyrosine-protein kinase JAK2 (Homo sapiens, UniProt O60674).

The recorded IC50 for entry COc1ccc(Cn2ccc3cnc(Nc4cnn(CCCCCCC(=O)NO)c4)nc32)cc1 equals > 0.1 µM

IC50 for Cc1cc(C(=O)NC(C)(C)C)cc(C#Cc2ccc3c4c(oc3c2)C(C)(C)c2cc(NS(C)(=O)=O)ccc2C4=O)n1 is > 10 µM

Notebook: COc1ccc(C(=O)Nc2ccc(NC(=O)c3ccccn3)cc2)cc1-c1c[nH]c(=O)[nH]c1=O , IC50 read as > 30 µM

Then this molecule:
Looking up CNC(=O)c1cc(Oc2ccc(NC(=O)Nc3cc(C(C)(C)C)nn3-c3ccc4ncccc4c3)c(F)c2)ccn1 , I found its IC50 recorded as > 1 µM
